Assay: in vitro
Details: chlorocebus sabaeus, Vero E6 (Vero C1008) cells, pCC50
parameter measured: CC50 at 48 h (µM)
Please reply with the bare figure in µM and do not write the unit itself.

{"columns": ["molecule", "CC50 at 48 h / µM"],
 "data": [
  ["CCCC(C(=O)OCCN(CC)CC)(c1ccccc1)c1ccccc1 [PROADIFEN]", 24],
  ["CC(Cc1ccccc1)NCCC(c1ccccc1)c1ccccc1 (centres undefined) [PRENYLAMINE]", 10.7]
]}

Now consider the entry below.
# input Which CC50 at 48 h value belongs to CC(=O)N1CCN([C@H]2CCN(C(=O)N(C)[C@H](C)c3cc(C(F)(F)F)cc(C(F)(F)F)c3)[C@@H](c3ccc(F)cc3C)C2)CC1 [CASOPITANT] ?
# output 17.8
